Assay details: forskolin-driven CRE-LacZ activity in PC12 – cell-based, CRE-LacZ reporter, forskolin-stimulated, primary screen (AID 1146);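 further: PC12 cells with 6xCRE LacZ reporter stimulated by forskolin 10 µM; beta-galactosidase reporter signal reflecting CREB driven transcription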
Experimental conditions: luminescence, 4.5 h, higher = more signal, called active from +8 up or from −8 down
Quantity measured: z-score

[
  {
    "Compound": "CN(C)CCCCCCNC(=O)[C@@H]1C[C@@H]2C(=O)N3CCC[C@H]3C(=O)N2[C@@H]1c1ccc(O)cc1",
    "Quantity measured": "z-score",
    "Assay result": -0.439
  },
  {
    "Compound": "CCOC(=O)C[C@H]1[C@H](OC(=O)c2ccc(-c3ccccc3)cc2)[C@@H](NC(=O)c2ccccc2)c2cc(OCCCO)ccc2N1C(=O)Cc1ccc(OC)cc1",
    "Quantity measured": "z-score",
    "Assay result": -0.701
  },
  {
    "Compound": "COC(=O)[C@@]1(Cc2ccccc2)[C@H]2c3cc(C(=O)N(C)C)n(Cc4ccc(OC)c(OC)c4)c3C[C@H]2CN1C(=O)c1ccccc1",
    "Quantity measured": "z-score",
    "Assay result": 0.786
  },
  {
    "Compound": "COc1ccc([C@H]2C[C@H]3C(Br)=C[C@@]2(CO)C(=O)[C@]32CO2)cc1",
    "Quantity measured": "z-score",
    "Assay result": 1.6
  },
  {
    "Compound": "C=CCC(OC(C)=O)[C@@H]1[C@@H](N(Cc2ccc(-c3cccc(C(F)(F)F)c3)o2)C(=O)Cc2ccc(OC)cc2)c2cc(OCCCO)ccc2N1C(=O)c1ccc2ccccc2c1 (stereo partly specified)",
    "Quantity measured": "z-score",
    "Assay result": 1.52
  },
  {
    "Compound": "C=CC[C@]12N=C(c3ccc(OCCCO)cc3)O[C@H]1c1ccccc1N(CCS(=O)(=O)c1ccccc1)C2=O",
    "Quantity measured": "z-score",
    "Assay result": -1.87
  },
  {
    "Compound": "CC1CC/C=C\\[C@H]2OC34C=CCN(Cn5nnc6ccccc65)C(=O)[C@H]3N(CCCCCO)C(=O)[C@@H]4C2C(=O)O1 (stereo partly specified)",
    "Quantity measured": "z-score",
    "Assay result": -0.567
  },
  {
    "Compound": "COC(=O)C(CC#Cc1ccc2c(c1)[C@]1(C(=O)N2)[C@H](c2ccccc2OCCO)N2[C@H](c3ccccc3)[C@H](c3ccccc3)OC(=O)[C@H]2[C@@H]1C(N)=O)C(=O)OC",
    "Quantity measured": "z-score",
    "Assay result": 1.02
  },
  {
    "Compound": "Cc1ccc([C@H]2C(C(=O)O)=CCN2S(=O)(=O)c2ccc(C)cc2)cc1",
    "Quantity measured": "z-score",
    "Assay result": -0.119
  },
  {
    "Compound": "COc1cc(CO)cc(I)c1O[C@H]1C=C(C(=O)NCCO)C[C@@H](N(C(=O)c2cc3ccccc3oc2=O)C2CCCCCC2)[C@@H]1O",
    "Quantity measured": "z-score",
    "Assay result": -0.94
  },
  {
    "Compound": "C=C(/C(=C/C[C@H](OC(C)=O)c1ccc(OCCO)cc1)c1cc(C(=O)OC)ccc1OC)C(C)C",
    "Quantity measured": "z-score",
    "Assay result": -0.509
  }
]
